Each record here notes measured GI50.
- Test system: Glioma-initiating cell E6R
- experimental protocol: Cell growth test (MTT) on GICR strain E6R
- Type: cell-based
- condition: Homo sapiens, 72 h; class of ER6 GI50, MTT after 3 days; read-out: Evaluation

// recorded GI50 for O=C(O)c1cc(C2CC2)cnc1Nc1ccc2c(ccn2CC2CCCCC2)c1 [Compound 2] : < 1000 nM

// recorded GI50 for O=C(O)c1cc(C2CC2)cnc1Nc1ccc2c(ccn2-c2cccc(F)c2)c1 [Compound 12] : < 1000 nM

// recorded GI50 for O=C(O)c1cc(C2CC2)cnc1Nc1ccc2c(ccn2-c2ccccc2)c1 [Compound 8] : < 1000 nM

====

- Tested on: Glioma-initiating cell E6R
- experimental protocol: Cell growth test (MTT) on GICR strain E6R
- Format: cell-based
- condition: Homo sapiens, 72 h; MTT after 3 days; read-out: ER6 GI50
readout name: GI50 (nM)

Examples with their reported GI50 follow.
INSERT INTO assay_data (structure_string, readout_name, endpoint_unit, endpoint_result) VALUES
  ('O=C(O)c1cc(C2CC2)cnc1Nc1cccc2c1ccn2-c1ccccc1', 'GI50', 'nM', 11),
  ('Cn1ccc2cc(Nc3ncc(C4CC4)cc3C(=O)O)cc(-c3ccc(C#N)cc3)c21', 'GI50', 'nM', 2.96);

a. O=C(O)c1cc(C2CC2)cnc1Nc1ccc2c(ccn2-c2cccc(F)c2)c1
b. O=C(O)c1cc(C2CC2)cnc1Nc1ccc2c(-c3ccccc3)nccc2c1
c. O=C(O)c1cc(C2CC2)cnc1Nc1ccc2c(ccn2-c2ccccc2)c1
List these items ordered by GI50, big to small. Please, when replying, give the labels in the order that was requested.
a, c, b
(a: 23.9 nM, c: 11.8 nM, b: 3.19 nM)

====

- Test system: Glioma-initiating cell E6R
- experimental protocol: Cell growth test (MTT) on GICR strain E6R
- Type: cell-based
- condition: Homo sapiens, 72 h; MTT after 3 days; read-out: ER6 GI50
readout name: GI50 (nM)

INSERT INTO results (compound, system, endpoint_result) VALUES
  ('Cn1ccc2cc(Nc3ncc(C4CC4)cc3C(=O)O)cc(-c3ccccc3F)c21 [Compound 4]', 'Glioma-initiating cell E6R', 1.69),
  ('O=C(O)c1cc(C2CC2)cnc1Nc1cccc2c(-c3ccccc3)cccc12 [Compound 9]', 'Glioma-initiating cell E6R', 4.35),
  ('O=C(O)c1cc(C2CC2)cnc1Nc1ccc2c(-c3ccccc3)cccc2c1 [Compound 10]', 'Glioma-initiating cell E6R', 1.77),
  ('O=C(O)c1cc(C2CC2)cnc1Nc1c(F)cc2c(ccn2Cc2ccccc2)c1F [Compound 14]', 'Glioma-initiating cell E6R', 47.6),
  ('Cn1ccc2cc(Nc3ncc(C4CC4)cc3C(=O)O)cc(-c3ccccc3)c21 [Compound 11]', 'Glioma-initiating cell E6R', 4.77);

P. Cn1ccc2cc(Nc3ncc(C4CC4)cc3C(=O)O)cc(C3=CCOCC3)c21 [Compound 15]
Q. Cn1ccc2cc(Nc3ncc(C4CC4)cc3C(=O)O)cc(-c3ccc(Cl)cc3)c21 [Compound 18]
Among P and Q , whose measured GI50 is the smaller figure? Refer to your chosen entry by its label in the reply.
Q
(Q: 0.62 nM, P: 25.9 nM)

====

- System: Glioma-initiating cell E6R
- experimental protocol: Cell growth test (MTT) on GICR strain E6R
- Assay type: cell-based
- condition: Homo sapiens, 72 h; MTT after 3 days; read-out: ER6 GI50
readout name: GI50 (nM)

INSERT INTO assay_data (structure_string, readout_name, endpoint_unit, endpoint_result) VALUES
  ('Cn1ccc2cc(Nc3ncc(C4CC4)cc3C(=O)O)cc(-c3cccc(Cl)c3)c21', 'GI50', 'nM', 2.23);

P. O=C(O)c1cc(C2CC2)ccc1Nc1cccc2c1ccc(=O)n2-c1ccccc1
Q. Cn1ccc2cc(Nc3ncc(C4CC4)cc3C(=O)O)cc(C3=CCCCC3)c21
R. O=C(O)c1cc(C2CC2)ccc1Nc1ccc2c(cnn2Cc2ccccc2)c1
S. O=C(O)c1cc(C2CC2)cnc1Nc1cc2ccn(Cc3ccccc3)c2cc1F
T. O=C(O)c1cc(C2CC2)cnc1Nc1ccc2c(ccn2CC2CCCCC2)c1
Task for the reader: rank each entry by its GI50, from the minimum upward. Please, when replying, give the labels in the order that was requested.
Q, P, S, R, T
